B1: EEHEE_rd4_0469 (parent)
chain: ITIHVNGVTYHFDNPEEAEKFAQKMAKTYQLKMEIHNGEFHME

Variants of: B1
test protocol: folding stability dG (cDNA display proteolysis); higher = more stable
particulars: PBS, room temperature
assay readout: folding stability dG (kcal/mol)
Provide the reading as a plain figure in kcal/mol.

# count of solved cases: 6
| mutation key | assay readout | experimental result |
| --- | --- | --- |
| N37W | folding stability dG | 1.17 |
| I35P | folding stability dG | 0.562 |
| H36A | folding stability dG | 0.796 |
| K24H | folding stability dG | 1.51 |
| I3L | folding stability dG | 0.868 |
| H36E | folding stability dG | 0.92 |

Request: Reported folding stability dG, variant F21Q : ____
Response: -0.188

Request: What value of measured folding stability dG is listed for N37K ?
Response: 0.81

Request: Would you mind telling me what folding stability dG value was observed for I1S ?
Response: 0.683

Request: folding stability dG for L31C ?
Response: 2.3

Request: Record request: folding stability dG value, item T9Q
Response: 1.27
